[
  {
    "compound": "COc1ccc2c(c1)-c1ccccc1C=CC(O)=C2",
    "melting point": "97 to 99 °C"
  },
  {
    "compound": "CC(C)c1ccccc1SC1=C(O)CC(CCCCC(=O)O)(c2ccccc2)OC1=O (stereo unspecified)",
    "melting point": "145 to 146 °C"
  },
  {
    "compound": "O=C(CC(=O)C(F)(F)F)Nc1cc(-c2ccccc2Br)n[nH]1",
    "melting point": "128 to 131 °C"
  },
  {
    "compound": "CC(C)C(CN=C(O)C(Cl)=C(Cl)C(=O)O)c1ccc(Cl)cc1 (stereo unspecified)",
    "melting point": "91 to 92 °C"
  },
  {
    "compound": "COC(CCOc1cc(C)ccc1C)C(C)(C)C(=O)O (stereo unspecified)",
    "melting point": "76 to 77 °C"
  },
  {
    "compound": "COc1cccc(Oc2cccnc2C#N)c1",
    "melting point": "112 to 114 °C"
  }
]

====

measuredQuantity: melting point

[
  {
    "compound": "C[C@@H](n1cnc2ccccc2c1=O)[C@](O)(Cn1cncn1)c1ccc(F)cc1F",
    "measurement": "122 to 128 °C"
  },
  {
    "compound": "CCN(CC)c1ccc(C2(c3c(C)n(CCOC)c4ccccc34)OC(=O)c3ccccc32)c(C)c1 (stereo unspecified)",
    "measurement": "140 to 143 °C"
  },
  {
    "compound": "COc1cc2ncc(C#N)c(Nc3ccc4[nH]ncc4c3)c2cc1OC",
    "measurement": "290 to 295 °C"
  },
  {
    "compound": "CCCNC(=O)NNC(=O)c1ccccc1",
    "measurement": "172 to 174 °C"
  },
  {
    "compound": "CC(=O)Nn1cc(C)n(C)c1=O",
    "measurement": "199 to 201 °C"
  },
  {
    "compound": "CC(C)CC(=O)Nc1ccc(Cl)c(-c2ccnc3c(C(=O)c4cccs4)cnn23)c1",
    "measurement": "162 to 165 °C"
  },
  {
    "compound": "COc1cc2nc(N3CCN(C#N)CC3)nc(N)c2cc1OC",
    "measurement": "215 °C"
  },
  {
    "compound": "Cc1nnc(OCC(F)(F)F)c(-c2c(F)cc(F)cc2F)c1-c1ccc(Cl)cc1",
    "measurement": "105 to 108 °C"
  },
  {
    "compound": "CCOc1nc(F)cc2nc(=S)[nH]n12",
    "measurement": "78 to 82 °C"
  },
  {
    "compound": "CC(C)(O)[C@H]1CC[C@H](Cc2cn(-c3ccc(F)cc3)c3ncccc3c2=O)CC1",
    "measurement": "208 to 209 °C"
  },
  {
    "compound": "NC(=S)c1ncccc1O",
    "measurement": "150 to 151 °C"
  }
]

====

Each record here notes measured melting point.

[
  {
    "compound": "CC(C)(C)c1ccc2c(c1)OCC(NNc1ncnc3c1ncn3C1OC(CO)C(O)C1O)C2 (stereo unspecified)",
    "melting point": "88 to 90 °C"
  },
  {
    "compound": "CSc1nc2ccccc2n2cc(-c3ccccc3)cc12",
    "melting point": "132 °C"
  },
  {
    "compound": "O=C(CSc1ccc(Cl)cc1C(=O)O)c1ccccc1",
    "melting point": "154 to 156 °C"
  },
  {
    "compound": "CCCCC[C@H](O)c1ccc(Br)cc1",
    "melting point": "70 to 71 °C"
  },
  {
    "compound": "O=C1CCC2=C(CCc3c(Cl)cccc32)N1",
    "melting point": "252 to 253 °C"
  },
  {
    "compound": "CCCCC(NC(=O)C(CS)C(C)c1ccccc1)C(=O)O (stereo unspecified)",
    "melting point": "55 °C"
  }
]

====

[
  {
    "compound": "CCCCCCCCCCCCCC(=O)c1cc(O)c(C)cc1O",
    "melting point": "83 °C"
  },
  {
    "compound": "CCCCCCCCCCCCCCCCOc1cc(CO)cc(CO)c1",
    "melting point": "90 °C"
  },
  {
    "compound": "Cc1cc(C)cc(N2C(=O)NC(C)(C3CC3)C2=O)c1 (stereo not given)",
    "melting point": "121 °C"
  },
  {
    "compound": "COC(=O)c1c(Cl)cc(Cl)cc1NC(=O)CSc1ccc(NC(=O)c2ccco2)cc1",
    "melting point": "133 to 135 °C"
  },
  {
    "compound": "O=c1nc(-c2ccc(Cl)s2)cc(C(F)(F)F)[nH]1",
    "melting point": "191 °C"
  },
  {
    "compound": "N#Cc1cccnc1N1CCN(CC(=O)Nc2ccc(F)c(C(F)(F)F)c2)CC1",
    "melting point": "120 to 122 °C"
  },
  {
    "compound": "CC(C)[C@@H](NS(=O)(=O)N1CCC(Oc2ccc(Cl)cn2)CC1)C(=O)NO",
    "melting point": "97 to 98.4 °C"
  },
  {
    "compound": "O=C1Nc2ccc(I)cc2C1=NNC(=O)c1ccc(O[C@@H](Cc2ccccc2)C(=O)OCc2ccccc2)cc1",
    "melting point": "194 °C"
  },
  {
    "compound": "CC(C)(C)C(Cl)=NNc1ccc([N+](=O)[O-])cc1",
    "melting point": "94.5 to 95.5 °C"
  },
  {
    "compound": "CN(C)C1(Cc2ccccc2)CCC(O)(c2cc3ccccc3n2C)CC1 (stereo not given)",
    "melting point": "105 to 107 °C"
  },
  {
    "compound": "Cc1cccc(CC2CCN(C(=O)C(=O)Nc3ccc4[nH]c(=O)oc4c3)CC2)c1",
    "melting point": "204 to 208 °C"
  },
  {
    "compound": "Cc1cccc(NS(=O)(=O)c2ccc([N+](=O)[O-])cc2)c1",
    "melting point": "121 to 124 °C"
  },
  {
    "compound": "O=C(CC(NC(=O)C(F)(F)F)C(=O)O)c1ccc2c(c1)CCO2 (stereo not given)",
    "melting point": "160 to 162 °C"
  },
  {
    "compound": "Cc1c(NC(=O)N2C[C@H](O[Si](C)(C)C(C)(C)C)C[C@H]2CO)ccc(C#N)c1Cl",
    "melting point": "169 to 171 °C"
  },
  {
    "compound": "Cc1nnc(OC[C@H]2CN(c3ccc(C4=CCOCC4)c(F)c3)C(=O)O2)o1",
    "melting point": "146 to 147 °C"
  },
  {
    "compound": "CC(=O)c1cnc2onc(C)c2c1O",
    "melting point": "162 °C"
  },
  {
    "compound": "CC(C)CCSC1C(O)C(CO)OC1n1ccc(=O)[nH]c1=O (stereo not given)",
    "melting point": "66 to 67 °C"
  },
  {
    "compound": "CC(C)(Oc1ccc(NC(=O)c2cc(Cl)cc(Cl)c2)cc1)C(=O)O",
    "melting point": "206 to 207 °C"
  },
  {
    "compound": "Cc1oc(-c2ccccc2)nc1COc1ccc(C(=O)c2ccccc2OC(C)C(=O)O)cc1 (stereo not given)",
    "melting point": "186 to 187 °C"
  },
  {
    "compound": "Clc1ccc(-c2cc(C3CCN(CC4CCCCC4)CC3)n[nH]2)cc1",
    "melting point": "186 to 187 °C"
  }
]

====

Each record here notes measured melting point.

[
  {
    "compound": "N=C(NCCCc1c[nH]cn1)NC1CCN(c2ccc(C3=NNC(=O)CC3CO)cc2[N+](=O)[O-])CC1 (stereo not given)",
    "melting point": "135 to 137 °C"
  },
  {
    "compound": "Cc1cc2c(NCCc3cccc(C(F)(F)F)c3)ncnc2o1",
    "melting point": "119 °C"
  },
  {
    "compound": "CC1=C(C(=O)NC(C)(C)C)C(c2ccccc2Cl)C(C(=O)NC(C)C)=C(COCCn2c(C)nc3ccccc32)N1 (stereo not given)",
    "melting point": "191 to 193 °C"
  },
  {
    "compound": "CC1=NC(NC(=O)Nc2cccc(C)c2)C(=O)N(CC(=O)C2CCCCCCC2)c2c(C)cccc21 (stereo not given)",
    "melting point": "163 to 164 °C"
  },
  {
    "compound": "CCn1cc(-c2cnccn2)ccc1=O",
    "melting point": "120 to 121 °C"
  }
]
